System: NCI/ADR-RES ovarian
Assay: NCI tumour cell line growth inhibition, 48 h
Recorded TGI for the following compounds
readout_name: TGI

| compound | experimental_target | readout_name | value |
| --- | --- | --- | --- |
| c1cc2c(cc1NC1=NCCO1)OCO2 | NCI/ADR-RES ovarian | TGI | > 100 µM |
| CC[C@H](Nc1ncnc2nc[nH]c12)c1nc2cccc(F)c2c(=O)n1-c1ccccc1 | NCI/ADR-RES ovarian | TGI | > 100 µM |
| CS(=O)(=O)CCNCc1cc(-c2cc3c(Nc4ccc(OCc5cccc(F)c5)c(Cl)c4)ncnc3s2)cs1 | NCI/ADR-RES ovarian | TGI | > 25 µM |
| CN(C)c1ccc(C=NCC2CCCN3CCCCC23)cc1 (centres undefined) | NCI/ADR-RES ovarian | TGI | > 100 µM |
| Nc1nc(Cl)c(N)c(NCC2(CO)CC2)n1 | NCI/ADR-RES ovarian | TGI | > 100 µM |
| O=C(O)c1ccc(NCn2nc(-c3ccccc3O)oc2=S)cc1 | NCI/ADR-RES ovarian | TGI | > 100 µM |
| O=[N+]([O-])c1ccc2c(c1)N([O-])C1(CCCCC1)[N+]2=O | NCI/ADR-RES ovarian | TGI | 77.7 µM |
| OCc1ccc(N2CCc3cccc(F)c3C2)cc1Cl | NCI/ADR-RES ovarian | TGI | 37.1 µM |
| Cn1c2ccccc2c2c3c(c4c5ccccc5n(C)c4c21)C(=O)NC3=O | NCI/ADR-RES ovarian | TGI | > 100 µM |
| Cc1ccc2c(c1)C(=O)c1nc(C)ccc1C2=O | NCI/ADR-RES ovarian | TGI | 59.1 µM |
| CO/N=C(/C)c1cccc(Nc2nc3ccccc3c3[nH]c4ccccc4c23)c1 | NCI/ADR-RES ovarian | TGI | 25.1 µM |
| CCOC(=O)C(Cc1c[nH]c2c(N(CCO)CCO)cccc12)(NC(C)=O)C(=O)OCC | NCI/ADR-RES ovarian | TGI | > 1000 µM |
| COC(CN(C(C)=O)C1CCC2(SCCS2)c2[nH]c3ccccc3c21)OC (centres undefined) | NCI/ADR-RES ovarian | TGI | > 100 µM |
| Cc1ccc(NC=O)c(-c2c(N)[nH]c(=S)[nH]c2=O)c1 | NCI/ADR-RES ovarian | TGI | > 100 µM |
